Type: physicochemical
study conditions: Fig S10 panel D
experimental readout: Tht category (> 2 to blank = +)

Take a look at these entries with their results.
substance | meas value
CEIEIQINMWQ | 1 (ThT. Cat is 1, if Rel. ThT >2)
KIKIQIN | 0 (ThT-inactive (N-Fold <2))
QCKFKQFFNMWQ | 1 (ThT. Cat is 1, if Rel. ThT >2)
QCKIKIQI | 1 (ThT. Cat is 1, if Rel. ThT >2)
KKFQKKFQ | 0 (ThT-inactive (N-Fold <2))
TKTLTKTL | 0 (ThT-inactive (N-Fold <2))
EFEFQF | 1 (ThT. Cat is 1, if Rel. ThT >2)
KIKIQIRGD | 1 (ThT. Cat is 1, if Rel. ThT >2)
MDQMDQMDQMDQMDQ | 0 (ThT-inactive (N-Fold <2))
QCKFKFQFNMWQ | 0 (ThT-inactive (N-Fold <2))

// Tht category (> 2 to blank = +) lookup, substance = RGDKIKIQI , result: 1 (ThT. Cat is 1, if Rel. ThT >2)

Entry QCKIKQIINM , Tht category (> 2 to blank = +) reported as 1 (ThT. Cat is 1, if Rel. ThT >2)

According to the records, this substance KYKYQY displays Tht category (> 2 to blank = +) of 1 (ThT. Cat is 1, if Rel. ThT >2)

Value of measured Tht category (> 2 to blank = +) for the entry KFKFEFEF : 1 (ThT. Cat is 1, if Rel. ThT >2)

Please fill in: Tht category (> 2 to blank = +) reported for KIKIQIMQWN = 0 (ThT-inactive (N-Fold <2))
